Every entry's value here was drawn from the RNAGym collection of RNA variant scans (doi:10.1101/gad.245936.114).

B1: tRNA (parent)
chain: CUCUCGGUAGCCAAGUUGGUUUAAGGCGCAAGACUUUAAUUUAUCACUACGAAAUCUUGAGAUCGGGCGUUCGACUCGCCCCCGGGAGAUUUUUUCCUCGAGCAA

# Variants of: B1
# method-notes: nonsense suppression (GFP-seq) (ratio to wild type); higher = more function; SUP4oc tRNA, yeast GFP reporter sort-seq
Fewer inactive variants are shown than the library holds.
Give measured nonsense suppression for each item. Keep answers brief.
Please reply with the number alone, leaving off any unit.

Assign nonsense suppression to the following record: U21A A31G
1.16

Assign nonsense suppression to the following record: U4A G61U
0.194

Assign nonsense suppression to the following record: A9G U63C
0.772

Assign nonsense suppression to the following record: A60G A89U
0.0291

Assign nonsense suppression to the following record: A30U A74U
0.0497

Assign nonsense suppression to the following record: A9G U71C
0.0266

Assign nonsense suppression to the following record: U17G G19A
0.204

Assign nonsense suppression to the following record: U63C A74G
0.0264

Assign nonsense suppression to the following record: G28A G61A
0.8

Assign nonsense suppression to the following record: C12U A13C
0.2

Assign nonsense suppression to the following record: A9U U20G
0.12

Assign nonsense suppression to the following record: A54C G65U
0.0425

Assign nonsense suppression to the following record: A24G C29U
0.0384

Assign nonsense suppression to the following record: U8A A9G
0.0277

Assign nonsense suppression to the following record: A60G G85A
1.16

Assign nonsense suppression to the following record: U17C C83U
0.191

Assign nonsense suppression to the following record: U4C G25C
0.723

Assign nonsense suppression to the following record: A9U G61A
0.195

Assign nonsense suppression to the following record: C11G G26C
0.359

Assign nonsense suppression to the following record: A24C
1.13

Assign nonsense suppression to the following record: A13C A60U
1.07

Assign nonsense suppression to the following record: C29U G73A
0.238

Assign nonsense suppression to the following record: C1U A9G
0.0262

Assign nonsense suppression to the following record: A54U G85C
0.208
